Where do these numbers come from? They come from PubChem BioAssay (EPA / NIEHS).

Experiment: UKN5_HCS_SBAD2_neurite_outgrowth: University of Konstanz (UKN) Leist Lab Neurite Outgrowth Assay in human iPSC-derived immature Dorsal Root Ganglia Neurons (UKN5) (AID 2284070)
Conditions: actives raise or lower the signal
Method: UKN5_HCS_SBAD2 is a cell-based, multiplexed-readout assay screening for neurite outgrowth and cell viability that uses SBAD2 (peripheral neurons differentiated from iPSC), a human peripheral nervous system cell line, with measurements taken at […] after chemical dosing in a microplate: 96-well plate. […] Following 24 hr chemical exposures in multi-well plates, neurite area is evaluated as a marker of neurite outgrowth using high-content imaging of cells stained with calcein-AM. […]
Active and inactive are the calls of the source. How the source made its calls: active means hit-call score of the fitted dose curve at least 0.9, where 1 is the maximum; inactive means score below 0.9.
Please reply with one of these outcomes: active, inactive

Answered cases to consult:
* O=C1N[C@@H]2C(=C[C@H](O)[C@@H](O)[C@H]2O)c2cc3c(c(O)c21)OCO3 | active
* CNC1(c2ccccc2Cl)CCCCC1=O (stereo not drawn) | inactive
* Clc1cc(Cl)c(-c2cc(Cl)c(Cl)c(Cl)c2Cl)cc1Cl | inactive
* COC(=O)[C@H]1[C@@H](OC(=O)c2ccccc2)C[C@@H]2CC[C@H]1N2C | inactive
* CNC(C)Cc1ccc2c(c1)OCO2 (stereo not drawn) | inactive
* CC(C)CC(C)c1sccc1NC(=O)c1cn(C)nc1C(F)(F)F (stereo not drawn) | inactive

GET /call?item= `Brc1ccc(Oc2cc(Br)c(Br)cc2Br)c(Br)c1` returns the recorded outcome of this test.
inactive

Recorded test call requested for `C[n+]1ccc(-c2ccccc2)cc1`
inactive

---

Assay: CCTE_Harrill_HTTr_CellCount_MCF7: CCTE's Cell Proliferation Assessment for the High-Throughput Transcriptomics (HTTr) Platform, Harrill Lab (AID 2284012);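 further: count of Hoechst-stained nuclei per well by high-content imaging in MCF-7 cells; cells exposed to compound for six hours; intended direction is loss of nuclei count meaning fewer cells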
Inconclusive results are not listed. Activity calls are given as the source filed them. Rule for the calls: active = hit-call score of the fitted dose curve at least 0.9, where 1 is the maximum; inconclusive = response in the unintended direction; inactive = score below 0.9.
Assay metric: outcome

• CC(C)(C)C(O)C(Oc1ccc(-c2ccccc2)cc1)n1cncn1 (configuration not stated) = inactive
• O=CNC(N1CCN(C(NC=O)C(Cl)(Cl)Cl)CC1)C(Cl)(Cl)Cl (configuration not stated) = inactive
• COC(=O)c1ccccc1S(=O)(=O)NC(=O)Nc1nc(C)cc(C)n1 = inactive
• CCCCC(CC)COC(=O)c1cc(Br)c(Br)c(Br)c1Br (configuration not stated) = inactive
• O=C(O)CCCOC(=O)c1ccccc1C(=O)O = inactive

Provide reported outcome for each item, in the same order as listed.
1. CNC(=O)ON=C(CSC)C(C)(C)C
2. Cc1ccc2cc(C)ccc2c1

["inactive", "inactive"]

Please supply outcome for each of the following items, keeping them in order.
1. CCc1cccc(C)c1N(C(=O)CCl)[C@@H](C)COC
2. CCC(C)(C)O
3. C=CC(=O)OCC(CC)CCCC (configuration not stated)

inactive
inactive
inactive

---

Assay: TOX21_p53_BLA_p5_viability: Viability Assessment in the Tox21 HCT-116 p53 Agonism Beta-lactamase Assay, Phase 5 (AID 2283600)
Inconclusive results are not listed. The source made the active and inactive calls. How the source made its calls: active means hit-call score of the fitted dose curve at least 0.9, where 1 is the maximum; inconclusive means response in the unintended direction; inactive means score below 0.9.
Your reply should match one of these outcome classes. yes (1) for active, no (0) for inactive

Take a look at these entries with their results.
- C#C[C@]1(O)CC[C@H]2[C@@H]3CCC4=CC(=O)CCC4=C3C=C[C@@]21CC: no (0)
- C[C@@H]1CC[C@@]2(OC1)O[C@H]1[C@@H](O)[C@H]3[C@@H]4CC[C@H]5C[C@@H](O[C@@H]6O[C@H](CO)[C@H](O[C@@H]7O[C@H](CO)[C@@H](O)[C@H](O[C@@H]8OC[C@@H](O)[C@H](O)[C@H]8O)[C@H]7O[C@@H]7O[C@H](CO)[C@@H](O)[C@H](O[C@@H]8O[C@H](CO)[C@@H](O)[C@H](O)[C@H]8O)[C@H]7O)[C@H](O)[C@H]6O)[C@H](O)C[C@]5(C)[C@H]4CC[C@]3(C)[C@H]1[C@@H]2C: yes (1)
- NC1=NC(=O)C(c2ccccc2)O1 (stereo not given): no (0)
- O=C/C=C/c1ccco1: no (0)

Pending molecule:
Identify the outcome logged in this assay for the molecule shown: `COc1ccccc1N1CCNCC1`
no (0)

---

Biological target: Cellular tumor antigen p53 (Homo sapiens) (UniProt P04637)
Sequence (P04637 whole entry, looked up): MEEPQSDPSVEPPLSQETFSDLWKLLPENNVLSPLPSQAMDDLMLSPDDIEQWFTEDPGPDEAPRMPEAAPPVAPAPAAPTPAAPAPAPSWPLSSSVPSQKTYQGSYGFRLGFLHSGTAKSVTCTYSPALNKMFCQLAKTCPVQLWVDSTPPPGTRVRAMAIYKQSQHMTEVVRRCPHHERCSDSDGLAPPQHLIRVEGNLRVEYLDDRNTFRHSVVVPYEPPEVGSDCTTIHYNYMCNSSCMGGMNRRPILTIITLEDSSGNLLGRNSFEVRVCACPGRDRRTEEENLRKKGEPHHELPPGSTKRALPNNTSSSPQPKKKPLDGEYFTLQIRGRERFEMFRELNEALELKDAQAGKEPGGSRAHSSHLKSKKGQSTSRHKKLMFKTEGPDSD
Test: TOX21_p53_BLA_p4_ratio: Tox21 HCT-116 p53 Agonism Beta-lactamase Assay, Ratio, Phase 4 (AID 2283601)
Inconclusive results are not listed. Activity calls are given as the source filed them. Rule for the calls: active = hit-call score of the fitted dose curve at least 0.9, where 1 is the maximum; inconclusive = response in the unintended direction; inactive = score below 0.9.
Would you mind answering with one of these outcomes? 1 (yes) (active), 0 (no) (inactive)

// below: answered compounds
• O=[N+]([O-])c1cc([N+](=O)[O-])c2ccccc2c1 = 0 (no)
• c1ccc2c(c1)cc1ccc3cccc4ccc2c1c34 = 1 (yes)

Outcome? `COc1c(C(C)(C)C)cc([N+](=O)[O-])c(C)c1[N+](=O)[O-]`
0 (no)

What outcome does the record of this test show for `C=C(Cl)CSC(=S)N(CC)CC` ?
0 (no)

Check the results log: what was the call for `O=c1[nH]oc2c1CCNC2` ?
0 (no)

Called result for c1ccc2c(c1)OCC(C1=NCCN1)O2 (stereo unspecified)
0 (no)

---

Assay: CCTE_Mundy_HCI_Cortical_Synap_Neur_Matur_CellBodySpotCount: CCTE's Synaptogenesis and Neurite Maturation Assay in rat cortical cells for Cell Body Spot Count, Mundy Lab (AID 2284223)
Activity calls are given as the source filed them. Rule for the calls: active = hit-call score of the fitted dose curve at least 0.9, where 1 is the maximum; inactive = score below 0.9.
Pick one: y = active, n = inactive

• CC1(C)[C@H](C(=O)O[C@H](C#N)c2cccc(Oc3ccccc3)c2)[C@@H]1C=C(Br)Br = n
• Cn1nc(C(F)(F)F)c(CS(=O)(=O)C2=NOC(C)(C)C2)c1OC(F)F = n
• CC(=O)[O-].CC(=O)[O-].O.O.O.[Pb+2] = n
• [CH3][Hg][Cl] = n
• CC1(C)[C@@H](C=C(Cl)Cl)[C@@H]1C(=O)O[C@@H](C#N)c1ccc(F)c(Oc2ccccc2)c1 = n

Look up the recorded call for `C[n+]1ccc(-c2cc[n+](C)cc2)cc1` in this test.
y

Given CC1(C)C(C=C(Cl)c2ccc(Cl)cc2)C1C(=O)OC(C#N)c1ccc(F)c(Oc2ccccc2)c1 (stereo not drawn) , state the outcome it received in this test.
n

Which outcome did this test record for the compound CCOP(=O)(OCC)OC(Cl)C(Cl)(Cl)Cl (stereo not drawn) ?
n

---

Assay: ATG_SREBP_CIS: Attagene CIS-FACTORIAL HepG2 Assay for human Sterol Regulatory Element Binding (SREBP) (AID 2282962)
Conditions: HepG2 Attagene cis-factorial SREBP reporter, mRNA; actives raise or lower the signal
Calls of active or inactive are those of the source. The calls were made as follows: active = hit-call score of the fitted dose curve at least 0.9, where 1 is the maximum; inactive = score below 0.9.
I would appreciate it if you answered using one of these outcomes: 1 for active, 0 for inactive

* CCC(C)c1cc([N+](=O)[O-])cc([N+](=O)[O-])c1OC(=O)C=C(C)C (configuration not stated) | 0

// return assay outcome for `CC(C)(C)C(=O)CCl`
0

What did this assay record as the result for `COc1ccc(CO)cc1` ?
0

Outcome? `CCC(C)(C)O`
0

Hey, what did the test say about `COC(C)(C)CCC[C@H](C)C/C=C/C(C)=C/C(=O)OC(C)C` ?
0

GET /call?item= `CCN(CC)C(=S)S` returns the recorded outcome of this test.
0

How was `Cc1cc(C)c(C2=C(OC(=O)CC(C)(C)C)C3(CCCC3)OC2=O)c(C)c1` classified in this test?
1

I would be grateful if you could indicate the recorded call for `[Cl-].[Cl-].[Cl-].[Yb+3]` .
0

Record lookup: outcome of this test for `C=CC(=O)OCCO` ?
1

Kindly provide the recorded test outcome for the following compound: `O=C(CCl)c1ccccc1`
0

Which outcome was entered for the compound `O=[N+]([O-])c1cc(C(F)(F)F)c(Cl)c([N+](=O)[O-])c1Cl` in this test?
0

Identify the outcome logged in this assay for the compound shown: `C=CC(=O)OC`
0

What did this assay record as the result for `Nc1ccccc1` ?
0

---

Experiment: ATG_FoxO_CIS: Attagene CIS-FACTORIAL HepG2 Assay for human Forkhead box O (FoxO) (AID 2282943)
Details: HepG2 Attagene cis-reporter, FoxO element, mRNA; actives raise or lower the signal
Active and inactive are the calls of the source. Rule for the calls: active = hit-call score of the fitted dose curve at least 0.9, where 1 is the maximum; inactive = score below 0.9.
Entry note: the call must match one of active, inactive

Some entries whose results are on file:
- C[N+](=O)[O-]: inactive
- CCOC(=O)NC(=S)Nc1ccccc1NC(=S)NC(=O)OCC: inactive
- CCCCCCCCCCCC#N: inactive
- ClCC(Cl)Cl: inactive
- N#Cc1cc(I)c(O)c(I)c1: inactive

Returns: the outcome recorded for `ClCCCCCCCl` in this assay.
inactive

Hi team, can someone confirm the assay call for `O=C(CCl)c1ccccc1` ?
inactive

Name the outcome recorded for `CC(C)CCCCCCCOP(=O)(Oc1ccccc1)Oc1ccccc1` in the assay.
inactive

---

Experiment: TOX21_p53_BLA_p3_viability: Viability Assessment in the Tox21 HCT-116 p53 Agonism Beta-lactamase Assay, Phase 3 (AID 2283593);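 further: cells exposed to compound for 16 h before reading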
Description: TOX21_p53_BLA_p3 is a cell-based, single-readout assay that uses HCT116, a human intestinal cell line, […] in a 1536-well plate.TOX21_p53_BLA_p3_viability is an assay readout measuring cellular ATP content and detected with CellTiter-Glo Luciferase-coupled ATP quantitation.TOX21_p53_BLA_p3_viability used a type of viability reporter where loss-of-signal activity can be used to understand changes in the cell viability. […]
Results filed as inconclusive are left out. Active and inactive are the calls of the source. The calls were made as follows: active = hit-call score of the fitted dose curve at least 0.9, where 1 is the maximum; inconclusive = response in the unintended direction; inactive = score below 0.9.
Your answer must be one of the following: active, inactive

// param item: `N#CC1(N=NC2(C#N)CCCCC2)CCCCC1` ; yields the recorded call
inactive

Can you look up the reported call for CC(=O)OC1CN2CCC1CC2 (configuration not stated) for me?
inactive

Check the results log: what was the call for CC(C)C(Nc1ccc(C(F)(F)F)cc1Cl)C(=O)OC(C#N)c1cccc(Oc2ccccc2)c1 (configuration not stated) ?
inactive

Could you check what this test reported for `Cl` ?
inactive
